Give measured remaining activity at 10000 µM for each item. Keep answers brief.
Target: Acetyl-CoA Hydrolase from S. cerevisiae (Saccharomyces cerevisiae, UniProt P32316)
Assay: biochemical
Type: biochemical
Conditions: 0.25 h, read-out: Enzyme Activity (%)
Could you write the number and then its unit?

Each of the following entries comes with a recorded value; kindly state remaining activity at 10000 µM for each.
1. CCN1C(=O)C=CC1=O [NEM, N-ethylmaleimide]
2. O=C(O)CI [IAA, iodoacetic acid]
3. C[S+](C)Cc1cc([N+](=O)[O-])ccc1O.[Br-] [HNBS(CH3)2 --Br]
4. NC(=O)CI [IAM, iodoacetamide]

**Result**
1: 52%; 2: 89%; 3: 71%; 4: 85%

Below is a list of molecules. For each, state its recorded remaining activity at 10000 µM.
1. O=C1CCC(=O)O1 [Succinic anhydride]
2. CC(=O)n1ccnc1 [N-acetylimidazole]
3. O[C@@H](CS)[C@@H](O)CS (relative stereo) [DTT]
4. OCCS [2-mercaptoethanol]

**Result**
1: 79%; 2: 67%; 3: 104%; 4: 101%

###

Please go through the items and note down their remaining activity at 5000 µM.
Molecular target: UniProt P32316
Experiment: biochemical
Details: pH 7.4, read-out: Enzyme Activity (%)
Answers are plain numbers, in %.

- CC(C)(COP(=O)(O)OP(=O)(O)OC[C@H]1O[C@@H](n2cnc3c(N)ncnc32)[C@H](O)[C@@H]1OP(=O)(O)O)[C@@H](O)C(=O)NCCC(=O)NCCSC(=O)CC(=O)O: 52

Field: remaining activity at 5000 µM. Fill in for each record below.
1. CCCCCCCCCCCCCC(=O)SCCNC(=O)CCNC(=O)[C@H](O)C(C)(C)COP(=O)(O)OP(=O)(O)OC[C@H]1O[C@@H](n2cnc3c(N)ncnc32)[C@H](O)[C@@H]1OP(=O)(O)O
2. CCC(=O)SCCNC(=O)CCNC(=O)[C@H](O)C(C)(C)COP(=O)(O)OP(=O)(O)OC[C@H]1O[C@@H](n2cnc3c(N)ncnc32)[C@H](O)[C@@H]1OP(=O)(O)O
3. CC(=O)CC(=O)SCCNC(=O)CCNC(=O)[C@H](O)C(C)(C)COP(=O)(O)OP(=O)(O)OC[C@H]1O[C@@H](n2cnc3c(N)ncnc32)[C@H](O)[C@@H]1OP(=O)(O)O
4. CCCC(=O)SCCNC(=O)CCNC(=O)[C@H](O)C(C)(C)COP(=O)(O)OP(=O)(O)OC[C@H]1O[C@@H](n2cnc3c(N)ncnc32)[C@H](O)[C@@H]1OP(=O)(O)O

**Result**
1: 52; 2: 72; 3: 90; 4: 62

###

Please respond with reported remaining activity at 1000 µM for every item in the list.
Molecular target: Acetyl-CoA Hydrolase from S. cerevisiae (Saccharomyces cerevisiae, UniProt P32316)
Sequence (P32316 1-526): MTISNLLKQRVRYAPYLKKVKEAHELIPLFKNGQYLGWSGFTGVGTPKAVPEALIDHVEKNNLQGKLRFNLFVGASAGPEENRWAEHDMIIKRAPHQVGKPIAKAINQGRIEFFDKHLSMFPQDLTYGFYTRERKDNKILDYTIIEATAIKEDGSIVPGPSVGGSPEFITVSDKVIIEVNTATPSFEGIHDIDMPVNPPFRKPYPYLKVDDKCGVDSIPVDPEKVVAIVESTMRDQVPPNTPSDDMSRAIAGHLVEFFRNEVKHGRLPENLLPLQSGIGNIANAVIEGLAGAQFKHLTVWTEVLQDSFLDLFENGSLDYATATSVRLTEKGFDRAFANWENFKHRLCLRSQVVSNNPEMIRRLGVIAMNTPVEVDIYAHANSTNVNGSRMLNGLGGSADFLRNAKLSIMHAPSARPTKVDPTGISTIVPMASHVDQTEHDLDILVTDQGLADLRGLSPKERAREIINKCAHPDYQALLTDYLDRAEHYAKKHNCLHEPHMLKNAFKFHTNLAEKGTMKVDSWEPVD
Test: biochemical
Conditions: pH 7.4, read-out: Enzyme Activity (%)
Give bare numbers, in %.

Example entries begin here.
- CC(=O)CC(=O)SCCNC(=O)CCNC(=O)[C@H](O)C(C)(C)COP(=O)(O)OP(=O)(O)OC[C@H]1O[C@@H](n2cnc3c(N)ncnc32)[C@H](O)[C@@H]1OP(=O)(O)O: 92
- CC(C)(COP(=O)(O)OP(=O)(O)OC[C@H]1O[C@@H](n2cnc3c(N)ncnc32)[C@H](O)[C@@H]1OP(=O)(O)O)[C@@H](O)C(=O)NCCC(=O)NCCSC(=O)CCC(=O)O: 79
- Nc1ncnc2c1ncn2[C@@H]1O[C@H](COP(=O)(O)O)[C@@H](O)[C@H]1O: 89

// batch mode: one remaining activity at 1000 µM value per listed entry
1. CCC(=O)SCCNC(=O)CCNC(=O)[C@H](O)C(C)(C)COP(=O)(O)OP(=O)(O)OC[C@H]1O[C@@H](n2cnc3c(N)ncnc32)[C@H](O)[C@@H]1OP(=O)(O)O
2. NC(=O)C1=CN([C@@H]2O[C@H](COP(=O)(O)OP(=O)(O)OC[C@H]3O[C@@H](n4cnc5c(N)ncnc54)[C@H](O)[C@@H]3O)[C@@H](O)[C@H]2O)C=CC1
3. Nc1ncnc2c1ncn2[C@@H]1O[C@H](COP(=O)(O)OP(=O)(O)O)[C@@H](O)[C@H]1O
4. Nc1ncnc2c1ncn2[C@@H]1O[C@H](COP(=O)(O)OP(=O)(O)OP(=O)(O)O)[C@@H](O)[C@H]1O

**Result**
1. 89
2. 69
3. 94
4. 99
